The following compounds are listed with their measured IC50 (ug/ml) VZV values.
# Tested on: VZV strain Ellen
# experimental_details: VZV Antiviral (ELISA) assay
# Format: cell-based
# condition_label: VZV strain Ellen in HFF cells

compound	IC50 (ug/ml) VZV
Nc1c(Cl)cccc1NC(=S)Nc1ccc(NC(=O)c2ccco2)cc1	>10 µg/mL
O=C(Nc1ccc(NC(=S)NCc2cc(C(F)(F)F)cc(C(F)(F)F)c2)cc1)c1ccco1	10 µg/mL
CCCCC(NC(=S)Nc1ccc(NC(=O)c2csnn2)cc1)c1cc(C(F)(F)F)cc(C(F)(F)F)c1 (centres unmarked)	0.5 µg/mL
N#Cc1cccc(NC(=S)Nc2ccc(NC(=O)c3csnn3)cc2)c1	3 µg/mL
CCCCN(C)c1cc(NC(=S)Nc2ccc(NC(=O)c3csnn3)cc2)cc(C(F)(F)F)c1	>10 µg/mL
CN(C)c1c(Cl)cccc1NC(=S)Nc1ccc(NC(=O)c2csnn2)cc1	>10 µg/mL
Nc1nccc(-c2ccc(NC(=S)Nc3ccc(NC(=O)c4csnn4)cc3)cc2Cl)n1	>10 µg/mL
COc1ccc(CCNC(=S)Nc2ccc(NC(=O)c3csnn3)cc2)cc1OC	>10 µg/mL
